conditions: in 2-ethylhexyl acetate, 288.15 K
READOUT_LABEL: solubility (mole fraction)

SMILES_CODE	READOUT_LABEL	RECORDED_RESULT
O=[N+]([O-])c1cc[nH]n1	solubility (mole fraction)	0.0107

###

conditions: in anisole, 298.15 K
READOUT_LABEL: solubility (mole fraction)

SMILES_CODE	READOUT_LABEL	RECORDED_RESULT
O=[N+]([O-])c1cc[nH]n1	solubility (mole fraction)	0.00688

###

settings: in benzyl alcohol, 308.15 K
READOUT_LABEL: solubility (mole fraction)

SMILES_CODE	READOUT_LABEL	RECORDED_RESULT
O=[N+]([O-])c1cc[nH]n1	solubility (mole fraction)	0.0508

###

conditions: in 2-ethylhexyl acetate, 298.15 K

SMILES_CODE	solubility (mole fraction)
O=[N+]([O-])c1cc[nH]n1	0.0122

###

details: in mesitylene, 313.15 K

SMILES_CODE	solubility (mole fraction)
O=[N+]([O-])c1cc[nH]n1	0.00401

###

conditions: in 1,2-dichlorobenzene, 293.15 K
READOUT_LABEL: solubility (mole fraction)

SMILES_CODE	RECORDED_RESULT
O=[N+]([O-])c1cc[nH]n1	0.00425

###

conditions: in mesitylene, 303.15 K
READOUT_LABEL: solubility (mole fraction)

SMILES_CODE	RECORDED_RESULT
O=[N+]([O-])c1cc[nH]n1	0.00288

###

conditions: in 1,2-dichlorobenzene, 283.15 K
READOUT_LABEL: solubility (mole fraction)

SMILES_CODE	READOUT_LABEL	RECORDED_RESULT
O=[N+]([O-])c1cc[nH]n1	solubility (mole fraction)	0.0009

###

conditions: in anisole, 323.15 K
READOUT_LABEL: solubility (mole fraction)

SMILES_CODE	RECORDED_RESULT
O=[N+]([O-])c1cc[nH]n1	0.0156

###

settings: in benzyl alcohol, 283.15 K

SMILES_CODE	solubility (mole fraction)
O=[N+]([O-])c1cc[nH]n1	0.0263

###

details: in mesitylene, 293.15 K

SMILES_CODE	solubility (mole fraction)
O=[N+]([O-])c1cc[nH]n1	0.002
